target: Vascular endothelial growth factor receptor 2 (Homo sapiens); settings: at 0.1 µM
Description: GSK_PKIS: KDR mean inhibition at 0.1 uM [Nanosyn]
quantity-kind: inhibition (%)
Answer in %, number only, no unit symbol.

(Q) Look up inhibition: `COc1cccc(-n2ncc3c(N/N=C/c4ccncc4)ncnc32)c1`
(A) 28.8

---

target: Ribosomal protein S6 kinase alpha-4 (Homo sapiens) (UniProt O75676); conditions: at 1 µM;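 also: mean inhibition of MSK2, GSK PKIS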
Sequence (O75676 whole entry, looked up): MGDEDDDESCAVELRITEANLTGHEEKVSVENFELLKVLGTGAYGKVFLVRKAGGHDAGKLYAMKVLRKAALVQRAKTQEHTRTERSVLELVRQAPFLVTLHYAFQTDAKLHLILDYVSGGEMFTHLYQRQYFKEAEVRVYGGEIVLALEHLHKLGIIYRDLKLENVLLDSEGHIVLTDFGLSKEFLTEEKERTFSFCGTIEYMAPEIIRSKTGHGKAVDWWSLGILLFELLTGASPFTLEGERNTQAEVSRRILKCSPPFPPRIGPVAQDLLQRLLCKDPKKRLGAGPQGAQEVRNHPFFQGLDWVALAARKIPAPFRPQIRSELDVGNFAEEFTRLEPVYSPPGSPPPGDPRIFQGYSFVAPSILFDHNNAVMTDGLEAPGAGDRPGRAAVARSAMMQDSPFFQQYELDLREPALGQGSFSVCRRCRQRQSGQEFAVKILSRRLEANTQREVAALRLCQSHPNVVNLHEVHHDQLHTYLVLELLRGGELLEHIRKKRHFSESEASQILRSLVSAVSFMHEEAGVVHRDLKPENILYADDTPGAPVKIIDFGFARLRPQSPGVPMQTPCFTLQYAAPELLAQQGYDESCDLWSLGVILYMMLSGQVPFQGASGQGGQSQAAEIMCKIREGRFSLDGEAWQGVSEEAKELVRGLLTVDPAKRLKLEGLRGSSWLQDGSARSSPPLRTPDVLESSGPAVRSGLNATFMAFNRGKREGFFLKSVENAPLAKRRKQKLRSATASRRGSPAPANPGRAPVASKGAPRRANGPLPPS
quantity-kind: inhibition (%)
Answer in %, number only, no unit symbol.

See these solved cases before continuing.
>>> endpoint_result("NS(=O)(=O)c1ccc(-c2ccc3c(NC(=O)C4CC4)n[nH]c3c2)cc1")
4.18
>>> endpoint_result("Fc1ccc(-c2ncn(C3CCNCC3)c2-c2ccnc(Oc3ccccc3)n2)cc1")
0.21
>>> endpoint_result("COc1cccc(-n2ncc3c(N/N=C/c4ccncc4)ncnc32)c1")
4.26
>>> endpoint_result("CCn1c(-c2nonc2N)nc2c(C#CC(C)(C)O)ncc(OCC3CCNCC3)c21")
19.2
>>> endpoint_result("NS(=O)(=O)c1ccc(N/C=C2\\C(=O)Nc3ccc4ncsc4c32)cc1")
50.9

(Q) Under Ribosomal protein S6 kinase alpha-4 (Homo sapiens) (UniProt O75676): inhibition value of `NC(=O)c1sc(-n2cnc3cc(C(F)(F)F)ccc32)cc1OCc1ccccc1Br` ?
(A) 1.32

(Q) Under Ribosomal protein S6 kinase alpha-4 (Homo sapiens) (UniProt O75676): inhibition value of `CCn1c(-c2nonc2N)nc2c(C#CCN)ncc(OCCCN)c21` ?
(A) 52

---

Overview of recorded inhibition for various molecules
target: PAS domain-containing serine/threonine-protein kinase (Homo sapiens) (UniProt Q96RG2); conditions: at 0.1 µM
Sequence (Q96RG2 whole entry, the tested form may be a part): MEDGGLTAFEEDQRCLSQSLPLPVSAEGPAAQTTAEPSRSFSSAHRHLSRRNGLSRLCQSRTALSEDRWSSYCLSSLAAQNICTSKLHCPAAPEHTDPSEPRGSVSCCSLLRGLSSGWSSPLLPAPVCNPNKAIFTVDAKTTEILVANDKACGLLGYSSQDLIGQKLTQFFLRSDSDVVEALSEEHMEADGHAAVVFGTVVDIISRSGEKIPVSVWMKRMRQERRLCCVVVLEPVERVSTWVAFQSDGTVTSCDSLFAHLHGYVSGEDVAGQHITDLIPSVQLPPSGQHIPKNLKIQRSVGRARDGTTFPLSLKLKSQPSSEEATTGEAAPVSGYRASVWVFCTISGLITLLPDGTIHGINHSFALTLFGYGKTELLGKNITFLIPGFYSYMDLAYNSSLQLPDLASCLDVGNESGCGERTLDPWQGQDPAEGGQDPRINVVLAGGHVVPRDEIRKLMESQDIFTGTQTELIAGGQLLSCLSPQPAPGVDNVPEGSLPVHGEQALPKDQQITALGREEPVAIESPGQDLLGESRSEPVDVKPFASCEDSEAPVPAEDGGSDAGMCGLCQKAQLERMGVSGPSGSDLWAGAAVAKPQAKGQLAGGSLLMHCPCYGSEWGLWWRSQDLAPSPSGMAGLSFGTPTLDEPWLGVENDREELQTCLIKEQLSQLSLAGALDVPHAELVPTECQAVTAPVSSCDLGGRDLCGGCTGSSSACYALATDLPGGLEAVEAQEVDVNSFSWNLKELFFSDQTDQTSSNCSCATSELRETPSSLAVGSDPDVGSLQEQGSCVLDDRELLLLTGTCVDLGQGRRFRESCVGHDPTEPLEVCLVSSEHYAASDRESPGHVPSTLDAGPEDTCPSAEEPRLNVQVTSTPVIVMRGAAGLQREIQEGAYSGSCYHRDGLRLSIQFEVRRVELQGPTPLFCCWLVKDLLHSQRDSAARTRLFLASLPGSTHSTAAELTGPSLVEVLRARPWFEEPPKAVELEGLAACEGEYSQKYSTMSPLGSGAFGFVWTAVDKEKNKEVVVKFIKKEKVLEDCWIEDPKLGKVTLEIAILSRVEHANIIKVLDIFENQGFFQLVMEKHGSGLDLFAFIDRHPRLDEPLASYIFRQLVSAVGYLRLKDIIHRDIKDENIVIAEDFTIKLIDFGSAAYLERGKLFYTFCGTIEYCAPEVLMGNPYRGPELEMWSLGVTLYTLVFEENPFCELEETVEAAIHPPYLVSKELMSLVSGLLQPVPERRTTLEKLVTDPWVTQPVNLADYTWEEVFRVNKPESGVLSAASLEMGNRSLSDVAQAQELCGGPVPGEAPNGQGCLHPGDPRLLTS
Description: GSK_PKIS: PASK mean inhibition at 0.1 uM [Nanosyn]
Answer in %, number only, no unit symbol.

See these solved cases before continuing.
>>> endpoint_result("Cc1cc(-c2ccco2)cc(C)c1/C=C/c1cncc(-c2nn[nH]n2)c1")
1.32
>>> endpoint_result("COc1cccc(COc2cc(-n3cnc4ccccc43)sc2C(N)=O)c1")
1.11
>>> endpoint_result("Fc1ccc(-c2ncn(C3CCNCC3)c2-c2ccnc(Oc3ccccc3)n2)cc1")
0.55
>>> endpoint_result("NC(=O)c1sc(-n2cnc3cc(C(F)(F)F)ccc32)cc1OCc1ccccc1Br")
1.33
>>> endpoint_result("CCn1c(-c2nonc2N)nc2c(C#CC(C)(C)O)nc(O[C@@H](CN)c3ccccc3)cc21")
0.53
>>> endpoint_result("CCn1c(-c2nonc2N)nc2c(C#CCN)ncc(OCCCN)c21")
1.4

(Q) Look up inhibition: `COc1cc2c(cc1Nc1nc(Nc3ccsc3C(N)=O)c3cc[nH]c3n1)N(C(=O)CN(C)C)CCC2`
(A) 0.93

(Q) Look up inhibition: `CCn1c(-c2nonc2N)nc2c(C#CC(C)(C)O)ncc(OC[C@@H]3CCCN3)c21`
(A) 0.57

---

test system: Serine/threonine-protein kinase B-raf (Homo sapiens), P15056 [V600E]; conditions: at 0.1 µM;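 also: mean inhibition of the BRAF V599E mutant, from GSK PKIS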
Sequence (P15056 whole entry V600E): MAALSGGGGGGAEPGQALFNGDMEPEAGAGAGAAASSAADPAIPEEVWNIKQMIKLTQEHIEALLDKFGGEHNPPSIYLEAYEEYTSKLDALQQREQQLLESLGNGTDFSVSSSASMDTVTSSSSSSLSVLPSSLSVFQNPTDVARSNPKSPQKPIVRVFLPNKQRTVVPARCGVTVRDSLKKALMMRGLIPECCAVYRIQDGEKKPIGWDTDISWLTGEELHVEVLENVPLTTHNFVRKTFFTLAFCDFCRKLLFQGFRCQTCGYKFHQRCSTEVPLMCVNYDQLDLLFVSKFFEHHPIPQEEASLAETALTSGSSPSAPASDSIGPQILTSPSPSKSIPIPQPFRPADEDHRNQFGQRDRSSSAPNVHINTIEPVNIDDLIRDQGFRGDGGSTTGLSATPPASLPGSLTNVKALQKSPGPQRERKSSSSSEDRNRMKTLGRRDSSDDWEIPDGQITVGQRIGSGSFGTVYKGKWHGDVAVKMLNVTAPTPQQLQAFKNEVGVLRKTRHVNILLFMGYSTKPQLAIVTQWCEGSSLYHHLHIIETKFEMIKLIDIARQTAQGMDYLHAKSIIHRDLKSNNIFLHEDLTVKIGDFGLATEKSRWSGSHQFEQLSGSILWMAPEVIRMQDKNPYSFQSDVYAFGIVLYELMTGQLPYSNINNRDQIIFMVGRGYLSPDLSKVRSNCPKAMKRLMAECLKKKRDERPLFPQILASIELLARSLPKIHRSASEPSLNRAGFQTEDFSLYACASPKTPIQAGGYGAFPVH
Description: GSK_PKIS: BRAF (V599E mutant) mean inhibition at 0.1 uM [Nanosyn]
quantity-kind: inhibition

See these solved cases before continuing.
>>> endpoint_result("COc1cc(C=NNc2ncnc3c2cnn3Cc2ccccc2)ccc1O")
"-5.58%"
>>> endpoint_result("COc1cccc(COc2cc(-n3cnc4ccccc43)sc2C(N)=O)c1")
"0.3%"
>>> endpoint_result("CCn1c(-c2nonc2N)nc2c(C#CCN)ncc(OCCCN)c21")
"-5.05%"
>>> endpoint_result("NC(=O)c1sc(-n2cnc3cc(C(F)(F)F)ccc32)cc1OCc1ccccc1Br")
"1.31%"

(Q) Look up inhibition: `CCn1c(-c2nonc2N)nc2c(C#CC(C)(C)O)nc(O[C@@H](CN)c3ccccc3)cc21`
(A) -1.97%

(Q) Look up inhibition: `CCn1c(-c2nonc2N)nc2c(C#CC(C)(C)O)ncc(OCC3CCNCC3)c21`
(A) 4.23%
